Biological target: Polyadenylate-binding protein 1 (Homo sapiens)
Assay: PABP poly(A) RNA binding inhibitors, primary screen, biochemical, fluorescence polarization, uHTS (AID 2014);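 note: calls also rest on retests at 20 µM and on dose response follow-up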
Details: confirmation repeats, at 20 µM, stronger effect = higher value
In all, about 290,000 compounds went through this assay and about 3,000 (1%) were called active. The sample as a whole holds a higher share of actives than the screen did.
Tag: yes (1) if measured inhibition is not below 70%, no (0) if it is.

Example cases with answers are listed next.
>>> assigned_class("Cc1cc(C)cc(OCC(=O)NNC(=O)CCN2C(=O)c3ccccc3C2=O)c1")
"yes (1)"
>>> assigned_class("CCC(CC)c1nnc(NC(=O)/C=C/c2ccco2)s1")
"no (0)"
>>> assigned_class("COc1ccccc1-n1c(-c2cc(-c3ccco3)[nH]n2)n[nH]c1=S")
"no (0)"
>>> assigned_class("Cc1cc(C)n2nc(SCC(N)=O)nc2n1")
"yes (1)"
>>> assigned_class("Cc1ccc(-n2ncc3c2CC(C)(C)CC3NC(=O)CCc2cnn(C)c2)cc1 (stereo unspecified)")
"no (0)"
>>> assigned_class("O=C(N/N=C/c1ccc([N+](=O)[O-])o1)c1cccc(S(=O)(=O)N2CCOCC2)c1")
"no (0)"
>>> assigned_class("Cc1cccc(NC(=O)c2sc3nc4c(c(-c5ccco5)c3c2N)CCC4)c1")
"yes (1)"
>>> assigned_class("CCN(CC)c1ccc(/C=N/Nc2nc(C)cc(C)n2)c(O)c1")
"no (0)"

Ask | Dear colleague, could you confirm whether "O=S1(=O)CCN(Cc2ccccc2Cl)CC1" has inhibition at or above 70%?
Reply | no (0)

Ask | Reported inhibition reaches at least 70% for "Cc1ccc(Nc2nc(Cl)c(C=O)s2)cc1" ?
Reply | no (0)
